src = patent US20190106460A1

Assay system: T1, βTrCP (tag cleaved and complexed with Skp1) (UniProt Q9Y297 175-605; P63208 1-163)
T1 construct: Protein of the fluorescence polarisation assay, 0.035 µM; also called Beta Transducin repeat-containing protein; βTrCP/Skp1
T1 sequence (Q9Y297 175-605, chain 1 of 2): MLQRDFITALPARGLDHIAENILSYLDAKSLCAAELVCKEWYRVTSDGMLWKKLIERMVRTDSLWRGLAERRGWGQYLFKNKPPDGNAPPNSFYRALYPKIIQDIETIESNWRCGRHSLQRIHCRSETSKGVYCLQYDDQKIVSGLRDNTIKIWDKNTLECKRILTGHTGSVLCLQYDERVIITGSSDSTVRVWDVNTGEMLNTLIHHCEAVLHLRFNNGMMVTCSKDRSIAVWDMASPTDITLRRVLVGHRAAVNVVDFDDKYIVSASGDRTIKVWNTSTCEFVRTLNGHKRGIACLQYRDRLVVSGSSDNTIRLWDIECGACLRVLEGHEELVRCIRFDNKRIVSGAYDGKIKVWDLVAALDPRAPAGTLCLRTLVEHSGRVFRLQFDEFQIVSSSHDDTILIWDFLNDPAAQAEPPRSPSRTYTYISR
T1 sequence (P63208 whole entry, chain 2 of 2): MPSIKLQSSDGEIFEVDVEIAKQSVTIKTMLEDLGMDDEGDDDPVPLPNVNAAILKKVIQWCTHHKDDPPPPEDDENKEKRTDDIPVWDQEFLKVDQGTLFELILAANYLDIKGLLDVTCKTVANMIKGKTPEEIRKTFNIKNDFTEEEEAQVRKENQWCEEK
Measurement description: fluorescence polarisation assay; the column head does not say whether IC50 or Ki
Non-standard residues stand in square brackets, D forms with d. *: point of attachment. 2,4,6‑trimethylbenzoyl = Cc1cc(C)c(C(=O)*)c(C)c1; 4‑(Br)‑2‑(Me)PhSO2 = Cc1cc(Br)ccc1S(=O)(=O)*; 4‑(i-Pr)PhSO2 = CC(C)c1ccc(S(=O)(=O)*)cc1; Benzoyl(4-tBu) = CC(C)(C)c1ccc(C(=O)*)cc1; Phe(3-F) = N[C@@H](Cc1cccc(F)c1)C(=O)O; 2Naphthoyl = O=C(c1ccc2ccccc2c1)*; Ahx = NCCCCCC(=O)O
Readout name: FP Assay / (nM)
All answers are understood in nM, so give the number only.

Examples with answers:
[
  {
    "Binder": "{4‑(Br)‑2‑(Me)PhSO2}-[dD]EG[Phe(3-F)]WE[Ahx]K(Benzoyl(4-tBu))-NH2 (Round II CPP; also called UBP094) [4-(Br)-2-(Me)PhSO2-dEGF(3F)WE-Ahx-K(CO((4-tBu)Ph))-NH2]",
    "Unit spec": "nM",
    "FP Assay /": 142
  },
  {
    "Binder": "{4‑(i-Pr)PhSO2}-[dD]EG[Phe(3-F)]WE[Ahx]K(2,4,6‑trimethylbenzoyl)-NH2 (Round II CPP; also called UBP082) [4-(i-Pr)PhSO2-dEGF(3F)WE-Ahx-K(CO((2,4,6-Me3)Ph))-NH2]",
    "Unit spec": "nM",
    "FP Assay /": 56.1
  }
]

Moving on to the next binder.
### Prompt Write down FP Assay / measured for item {4‑(Br)‑2‑(Me)PhSO2}-[dD]EG[Phe(3-F)]WE[Ahx]K(2Naphthoyl)-NH2 (Round II CPP; also called UBP095) [4-(Br)-2-(Me)PhSO2-dEGF(3F)WE-Ahx-K(CO(2-Naphth))-NH2]
### Response 86.7
